Molecular target: Melanocortin receptor 3 (Mus musculus, UniProt P33033)
Sequence (P33033 whole entry): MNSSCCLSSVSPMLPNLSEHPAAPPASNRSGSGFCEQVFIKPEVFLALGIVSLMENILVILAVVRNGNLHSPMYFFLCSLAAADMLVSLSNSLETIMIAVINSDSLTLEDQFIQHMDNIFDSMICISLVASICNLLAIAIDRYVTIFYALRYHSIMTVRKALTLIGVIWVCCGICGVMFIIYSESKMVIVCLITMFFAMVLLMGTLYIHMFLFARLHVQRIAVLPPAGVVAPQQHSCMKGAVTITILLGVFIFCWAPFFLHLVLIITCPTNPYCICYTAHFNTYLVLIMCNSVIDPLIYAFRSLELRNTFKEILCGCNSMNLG
Test: Antagonist activity at mouse MC3R expressed in HEK293 cells assessed as reduction in NDP-MSH-induced response incubated for 2 hrs by AlphaScreen cAMP assay based Schild analysis
Type: functional, cell-based
Conditions: read-out: pA2 (converted)
Square brackets hold non-standard residues; d marks the D form. Peptide text beside a SMILES is read from it. hPhe = N[C@@H](CCc1ccccc1)C(=O)O; Nle = CCCC[C@H](N)C(=O)O; Dap = NC[C@H](N)C(=O)O
Exercise: for every item that follows, state its recorded Kb.
Put down the number, then write its unit next to it.

// solved cases for Kb follow
compound="CCCC[C@@H]1NC(=O)[C@H](C)NC(=O)[C@H](CCCNC(=N)N)NC(=O)[C@H](CCc2ccccc2)NC(=O)[C@H](Cc2ccccc2)NC(=O)[C@H](CCCNC(=N)N)NC(=O)[C@@H]2CCCN2C(=O)[C@H]2CCCN2C1=O (cyclo(RF[hPhe]RA[Nle][dP]P))" study_target="Melanocortin receptor 3 (Mus musculus, UniProt P33033)" assay_readout=Kb test_value="31.6 nM"
compound="CCCC[C@@H]1NC(=O)[C@H](C)NC(=O)[C@H](CN)NC(=O)[C@H](CCc2ccccc2)NC(=O)[C@H](Cc2ccccc2)NC(=O)[C@H](CCCNC(=N)N)NC(=O)[C@@H]2CCCN2C(=O)[C@H]2CCCN2C1=O (cyclo(RF[hPhe][Dap]A[Nle][dP]P))" study_target="Melanocortin receptor 3 (Mus musculus, UniProt P33033)" assay_readout=Kb test_value="200 nM"
compound="CCCC[C@@H]1NC(=O)[C@H](CO)NC(=O)[C@H](CN)NC(=O)[C@H](Cc2ccccc2)NC(=O)[C@H](Cc2ccccc2)NC(=O)[C@H](CCCNC(=N)N)NC(=O)[C@@H]2CCCN2C(=O)[C@H]2CCCN2C1=O (cyclo(RFF[Dap]S[Nle][dP]P))" study_target="Melanocortin receptor 3 (Mus musculus, UniProt P33033)" assay_readout=Kb test_value="316 nM"

Now look at this one.
q: Looking for the measured Kb of N=C(N)NCCC[C@@H]1NC(=O)[C@H](CCc2ccccc2)NC(=O)[C@H](Cc2ccccc2)NC(=O)[C@H](CCCNC(=N)N)NC(=O)[C@@H]2CCCN2C(=O)[C@H]2CCCN2C(=O)[C@H](Cc2ccccc2)NC(=O)[C@H](CO)NC1=O (cyclo(RF[hPhe]RSF[dP]P)) , can you help?
a: 20 nM

* * *

Target: Melanocortin receptor 3 (Mus musculus, UniProt P33033)
Test: Antagonist activity at mouse MC3R expressed in HEK293 cells assessed as reduction in NDP-MSH-induced response incubated for 2 hrs by AlphaScreen cAMP assay based Schild analysis
Type: functional, cell-based
Details: read-out: pA2 (converted)
Square brackets hold non-standard residues; d marks the D form. Peptide text beside a SMILES is read from it. hPhe = N[C@@H](CCc1ccccc1)C(=O)O; Nle = CCCC[C@H](N)C(=O)O; Dap = NC[C@H](N)C(=O)O
Exercise: for every item that follows, state its recorded Kb.
Give bare numbers, in nM.

compound=N=C(N)NCCC[C@@H]1NC(=O)[C@H](Cc2ccccc2)NC(=O)[C@H](Cc2ccccc2)NC(=O)[C@H](CCCNC(=N)N)NC(=O)[C@@H]2CCCN2C(=O)[C@H]2CCCN2C(=O)[C@H](Cc2ccccc2)NC(=O)[C@H](CO)NC1=O test_value=79.4
compound="CCCC[C@@H]1NC(=O)[C@H](CO)NC(=O)[C@H](CC(N)=O)NC(=O)[C@H](Cc2ccccc2)NC(=O)[C@H](Cc2ccccc2)NC(=O)[C@H](CCCNC(=N)N)NC(=O)[C@@H]2CCCN2C(=O)[C@H]2CCCN2C1=O (cyclo(RFFNS[Nle][dP]P))" test_value=251

Items follow; give Kb for each.
1. C[C@@H]1NC(=O)[C@H](CCCNC(=N)N)NC(=O)[C@H](CCc2ccccc2)NC(=O)[C@H](Cc2ccccc2)NC(=O)[C@H](CCCNC(=N)N)NC(=O)[C@@H]2CCCN2C(=O)[C@H]2CCCN2C(=O)[C@H](Cc2ccccc2)NC1=O (cyclo(RF[hPhe]RAF[dP]P))
2. N=C(N)NCCC[C@@H]1NC(=O)[C@@H]2CCCN2C(=O)[C@H]2CCCN2C(=O)[C@H](Cc2ccccc2)NC(=O)[C@H](CO)NC(=O)[C@H](CN)NC(=O)[C@H](Cc2ccccc2)NC(=O)[C@H](Cc2ccccc2)NC1=O
3. CCCC[C@@H]1NC(=O)[C@H](C)NC(=O)[C@H](CC(N)=O)NC(=O)[C@H](CCc2ccccc2)NC(=O)[C@H](Cc2ccccc2)NC(=O)[C@H](CCCNC(=N)N)NC(=O)[C@@H]2CCCN2C(=O)[C@H]2CCCN2C1=O

a:
1: 10; 2: 158; 3: 631

Items follow; give Kb for each.
1. CCCC[C@@H]1NC(=O)[C@H](CO)NC(=O)[C@H](CN)NC(=O)[C@H](CCc2ccccc2)NC(=O)[C@H](Cc2ccccc2)NC(=O)[C@H](CCCNC(=N)N)NC(=O)[C@@H]2CCCN2C(=O)[C@H]2CCCN2C1=O (cyclo(RF[hPhe][Dap]S[Nle][dP]P))
2. CCCC[C@@H]1NC(=O)[C@H](C)NC(=O)[C@H](CN)NC(=O)[C@H](Cc2ccccc2)NC(=O)[C@H](Cc2ccccc2)NC(=O)[C@H](CCCNC(=N)N)NC(=O)[C@@H]2CCCN2C(=O)[C@H]2CCCN2C1=O
3. CCCC[C@@H]1NC(=O)[C@H](C)NC(=O)[C@H](CCCNC(=N)N)NC(=O)[C@H](Cc2ccccc2)NC(=O)[C@H](Cc2ccccc2)NC(=O)[C@H](CCCNC(=N)N)NC(=O)[C@@H]2CCCN2C(=O)[C@H]2CCCN2C1=O (cyclo(RFFRA[Nle][dP]P))

a:
1: 200; 2: 79.4; 3: 31.6

* * *

Target: Melanocortin receptor 5 (Mus musculus) (UniProt P41149)
Sequence (P41149 whole entry): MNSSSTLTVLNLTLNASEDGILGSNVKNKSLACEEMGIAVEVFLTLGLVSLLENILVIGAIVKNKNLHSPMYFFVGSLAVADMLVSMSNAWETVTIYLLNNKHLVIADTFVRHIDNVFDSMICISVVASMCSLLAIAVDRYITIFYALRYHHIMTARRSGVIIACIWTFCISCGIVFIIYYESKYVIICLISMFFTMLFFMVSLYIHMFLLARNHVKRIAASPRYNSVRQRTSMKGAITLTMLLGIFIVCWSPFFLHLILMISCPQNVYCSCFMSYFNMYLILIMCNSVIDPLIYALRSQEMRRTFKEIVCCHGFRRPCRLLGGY
Experiment: Inverse agonist activity at mouse MC5R expressed in HEK293 cells at 100 uM incubated for 2 hrs by AlphaScreen cAMP assay
Format: functional, cell-based
Square brackets hold non-standard residues; d marks the D form. Peptide text beside a SMILES is read from it. hPhe = N[C@@H](CCc1ccccc1)C(=O)O; Nle = CCCC[C@H](N)C(=O)O
assay.readout: Activity

compound="CCCC[C@@H]1NC(=O)[C@H](C)NC(=O)[C@H](CCCNC(=N)N)NC(=O)[C@H](CCc2ccccc2)NC(=O)[C@H](Cc2ccccc2)NC(=O)[C@H](CCCNC(=N)N)NC(=O)[C@@H]2CCCN2C(=O)[C@H]2CCCN2C1=O (cyclo(RF[hPhe]RA[Nle][dP]P))" study_target="Melanocortin receptor 5 (Mus musculus) (UniProt P41149)" assay_readout=Activity test_value="< 20%"

Now look at this one.
q: Looking for the measured Activity of N=C(N)NCCC[C@@H]1NC(=O)[C@H](Cc2ccccc2)NC(=O)[C@H](Cc2ccccc2)NC(=O)[C@H](CCCNC(=N)N)NC(=O)[C@@H]2CCCN2C(=O)[C@H]2CCCN2C(=O)[C@H](Cc2ccccc2)NC(=O)[C@H](CO)NC1=O , can you help?
a: < 20%

* * *

Exercise: for every item that follows, state its recorded EC50.
Molecular target: Melanocyte-stimulating hormone receptor (Mus musculus)
Sequence (Q01727 whole entry): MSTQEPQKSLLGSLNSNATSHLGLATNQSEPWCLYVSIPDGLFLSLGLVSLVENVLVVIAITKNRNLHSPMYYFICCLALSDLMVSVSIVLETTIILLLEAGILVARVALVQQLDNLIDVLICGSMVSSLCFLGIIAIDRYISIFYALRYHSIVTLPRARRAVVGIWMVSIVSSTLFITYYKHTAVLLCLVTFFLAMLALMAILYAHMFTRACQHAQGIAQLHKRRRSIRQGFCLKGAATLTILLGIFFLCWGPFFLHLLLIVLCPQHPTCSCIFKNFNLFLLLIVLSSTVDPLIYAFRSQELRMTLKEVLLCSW
Experiment: Agonist activity at mouse MC1R expressed in HEK293 cells incubated for 2 hrs by AlphaScreen cAMP assay
Type: functional, cell-based
Square brackets hold non-standard residues; d marks the D form. Peptide text beside a SMILES is read from it. hPhe = N[C@@H](CCc1ccccc1)C(=O)O; Nle = CCCC[C@H](N)C(=O)O
Give bare numbers, in nM.

molecule="CCCC[C@@H]1NC(=O)[C@H](CO)NC(=O)[C@H](CCCNC(=N)N)NC(=O)[C@H](CCc2ccccc2)NC(=O)[C@H](Cc2ccccc2)NC(=O)[C@H](CCCNC(=N)N)NC(=O)[C@@H]2CCCN2C(=O)[C@H]2CCCN2C1=O (cyclo(RF[hPhe]RS[Nle][dP]P))" study_target="Melanocyte-stimulating hormone receptor (Mus musculus)" test_value=400

Now look at this one.
q: Provide value of EC50 for this record tested with Melanocyte-stimulating hormone receptor (Mus musculus): N=C(N)NCCC[C@@H]1NC(=O)[C@@H]2CCCN2C(=O)[C@H]2CCCN2C(=O)[C@H](Cc2ccccc2)NC(=O)[C@H](CO)NC(=O)[C@H](CN)NC(=O)[C@H](Cc2ccccc2)NC(=O)[C@H](Cc2ccccc2)NC1=O
a: 600

* * *

Biological target: Melanocyte-stimulating hormone receptor (Mus musculus)
Experiment: Agonist activity at mouse MC1R expressed in HEK293 cells incubated for 2 hrs by AlphaScreen cAMP assay
pEC50: −log10 of the molar value. Square brackets hold non-standard residues; d marks the D form. Peptide text beside a SMILES is read from it. hPhe = N[C@@H](CCc1ccccc1)C(=O)O; Nle = CCCC[C@H](N)C(=O)O; Dap = NC[C@H](N)C(=O)O
assay.readout: pEC50

molecule="CCCC[C@@H]1NC(=O)[C@H](CO)NC(=O)[C@H](CN)NC(=O)[C@H](Cc2ccccc2)NC(=O)[C@H](Cc2ccccc2)NC(=O)[C@H](CCCNC(=N)N)NC(=O)[C@@H]2CCCN2C(=O)[C@H]2CCCN2C1=O (cyclo(RFF[Dap]S[Nle][dP]P))" test_value="< 4.00"
molecule="CCCC[C@@H]1NC(=O)[C@H](C)NC(=O)[C@H](CCCNC(=N)N)NC(=O)[C@H](CCc2ccccc2)NC(=O)[C@H](Cc2ccccc2)NC(=O)[C@H](CCCNC(=N)N)NC(=O)[C@@H]2CCCN2C(=O)[C@H]2CCCN2C1=O (cyclo(RF[hPhe]RA[Nle][dP]P))" test_value="< 4.00"
molecule=CCCC[C@@H]1NC(=O)[C@H](C)NC(=O)[C@H](CN)NC(=O)[C@H](Cc2ccccc2)NC(=O)[C@H](Cc2ccccc2)NC(=O)[C@H](CCCNC(=N)N)NC(=O)[C@@H]2CCCN2C(=O)[C@H]2CCCN2C1=O test_value=6.72
molecule=C[C@@H]1NC(=O)[C@H](CN)NC(=O)[C@H](CCc2ccccc2)NC(=O)[C@H](Cc2ccccc2)NC(=O)[C@H](CCCNC(=N)N)NC(=O)[C@@H]2CCCN2C(=O)[C@H]2CCCN2C(=O)[C@H](Cc2ccccc2)NC1=O test_value=6.25
molecule="CCCC[C@@H]1NC(=O)[C@H](C)NC(=O)[C@H](CN)NC(=O)[C@H](CCc2ccccc2)NC(=O)[C@H](Cc2ccccc2)NC(=O)[C@H](CCCNC(=N)N)NC(=O)[C@@H]2CCCN2C(=O)[C@H]2CCCN2C1=O (cyclo(RF[hPhe][Dap]A[Nle][dP]P))" test_value="< 4.00"

Items follow; give pEC50 for each.
1. N=C(N)NCCC[C@@H]1NC(=O)[C@H](Cc2ccccc2)NC(=O)[C@H](Cc2ccccc2)NC(=O)[C@H](CCCNC(=N)N)NC(=O)[C@@H]2CCCN2C(=O)[C@H]2CCCN2C(=O)[C@H](Cc2ccccc2)NC(=O)[C@H](CO)NC1=O
2. CCCC[C@@H]1NC(=O)[C@H](CO)NC(=O)[C@H](CCCNC(=N)N)NC(=O)[C@H](Cc2ccccc2)NC(=O)[C@H](Cc2ccccc2)NC(=O)[C@H](CCCNC(=N)N)NC(=O)[C@@H]2CCCN2C(=O)[C@H]2CCCN2C1=O (cyclo(RFFRS[Nle][dP]P))
3. CCCC[C@@H]1NC(=O)[C@H](CO)NC(=O)[C@H](CC(N)=O)NC(=O)[C@H](Cc2ccccc2)NC(=O)[C@H](Cc2ccccc2)NC(=O)[C@H](CCCNC(=N)N)NC(=O)[C@@H]2CCCN2C(=O)[C@H]2CCCN2C1=O (cyclo(RFFNS[Nle][dP]P))

a:
< 4.00
< 4.00
5.59
